From: patent US20240336686A1

target: T1, human SIRPα v2 on CHOK1 cells (human, UniProt P78324 31-504); test: FACS, CHOK1 cells stably expressing human SIRPα v2
T1 construct: whole, on cells; also called CHOK1-hSIRPα v2; cell surface human SIRPα v2
T1 sequence (P78324 other isoform, or with tags, fused parts or gaps limits assumed): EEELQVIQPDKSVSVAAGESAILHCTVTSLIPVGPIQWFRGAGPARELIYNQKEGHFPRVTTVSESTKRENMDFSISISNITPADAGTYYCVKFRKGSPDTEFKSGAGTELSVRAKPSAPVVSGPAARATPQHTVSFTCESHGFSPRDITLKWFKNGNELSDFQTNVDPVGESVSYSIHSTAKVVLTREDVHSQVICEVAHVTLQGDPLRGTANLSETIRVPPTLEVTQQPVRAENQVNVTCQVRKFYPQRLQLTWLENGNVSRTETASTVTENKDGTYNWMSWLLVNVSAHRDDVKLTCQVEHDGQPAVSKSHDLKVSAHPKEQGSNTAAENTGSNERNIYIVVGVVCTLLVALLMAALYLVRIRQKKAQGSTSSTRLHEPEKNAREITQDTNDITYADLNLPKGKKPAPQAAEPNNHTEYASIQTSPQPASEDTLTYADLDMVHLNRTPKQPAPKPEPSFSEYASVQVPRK
# Lookup of reported EC50 keyed by entry
readoutType: EC50

binder	readoutType	reported
Anti-SIRPα antibody C73 (antibody, human IgG4, V domains shown, Mouse variable regions; also called 073c; 073C) VH: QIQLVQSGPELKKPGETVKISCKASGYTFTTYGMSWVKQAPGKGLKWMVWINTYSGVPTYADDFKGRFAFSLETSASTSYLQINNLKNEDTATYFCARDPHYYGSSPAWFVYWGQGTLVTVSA VL: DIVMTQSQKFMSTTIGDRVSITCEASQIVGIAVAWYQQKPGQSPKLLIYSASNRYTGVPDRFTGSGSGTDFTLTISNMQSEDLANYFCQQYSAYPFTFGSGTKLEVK	EC50	2.12 nM
Anti-SIRPα antibody C59 (antibody, V domains shown, Mouse variable regions; tested as purified chimeric antibody; also called 059c) VH: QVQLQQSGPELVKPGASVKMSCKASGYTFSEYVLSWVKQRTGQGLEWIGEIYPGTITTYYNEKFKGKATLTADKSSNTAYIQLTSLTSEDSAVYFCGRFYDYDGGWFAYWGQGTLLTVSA VL: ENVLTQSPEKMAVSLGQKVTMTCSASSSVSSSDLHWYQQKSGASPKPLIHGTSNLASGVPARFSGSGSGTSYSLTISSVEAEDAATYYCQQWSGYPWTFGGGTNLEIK	EC50	12 nM
Anti-SIRPα antibody C25 (antibody, V domains shown, Mouse variable regions; also called 025c; 025) VH: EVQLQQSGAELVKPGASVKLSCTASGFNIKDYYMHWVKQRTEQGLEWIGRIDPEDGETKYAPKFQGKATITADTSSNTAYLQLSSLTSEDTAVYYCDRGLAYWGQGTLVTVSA VL: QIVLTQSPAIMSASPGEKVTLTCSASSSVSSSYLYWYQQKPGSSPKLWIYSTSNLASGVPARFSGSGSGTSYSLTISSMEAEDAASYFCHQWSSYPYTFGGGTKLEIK	EC50	1.34 nM
Anti-SIRPα antibody C15 (antibody, V domains shown, Mouse variable regions; tested as purified chimeric antibody; also called 015c) VH: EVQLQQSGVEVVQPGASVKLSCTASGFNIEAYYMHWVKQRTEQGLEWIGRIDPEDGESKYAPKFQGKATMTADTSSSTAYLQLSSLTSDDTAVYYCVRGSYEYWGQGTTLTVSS VL: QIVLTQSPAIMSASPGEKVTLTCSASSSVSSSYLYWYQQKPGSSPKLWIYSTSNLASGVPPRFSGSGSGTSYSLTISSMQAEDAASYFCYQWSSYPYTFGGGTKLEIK	EC50	1.58 nM
